# System: RsbU45–313 K140A/R134A (Chlamydia trachomatis, UniProt A0A0H3MDU0, K140A/R134A)
# Method summary: Surface plasmon resonance, K140A/R134A variant
# Condition parameters: read-out: KD (estimated, steady state affinity), SPR, PBS
pKd: −log10 of the molar value.

- Molecule: "O=C(O)CCC(=O)C(=O)O [alpha-ketoglutarate]"
  pKd: 3.25
